- measured.on: HLA-A24:02 class I MHC molecule (human)
- experiment.summary: competition with a radiolabeled reference peptide for purified MHC I, gel filtration; 'Affinity (nM)'
parameter.measured: pIC50
Remember the convention: pIC50 equals -log10 of concentration in molar.

May I ask what pIC50 has been recorded for EYMANGSLL [BTK, C481S peptide EYMANGSLL] ?
8.30
